Values from patent EP3156398A1

Target: CXCR3 (Homo sapiens)
Construct: expressed in transfected cells; host or cells: HEK293 / HEK293T cells, stably transfected; membrane preparations
Sequence (P49682 1-368): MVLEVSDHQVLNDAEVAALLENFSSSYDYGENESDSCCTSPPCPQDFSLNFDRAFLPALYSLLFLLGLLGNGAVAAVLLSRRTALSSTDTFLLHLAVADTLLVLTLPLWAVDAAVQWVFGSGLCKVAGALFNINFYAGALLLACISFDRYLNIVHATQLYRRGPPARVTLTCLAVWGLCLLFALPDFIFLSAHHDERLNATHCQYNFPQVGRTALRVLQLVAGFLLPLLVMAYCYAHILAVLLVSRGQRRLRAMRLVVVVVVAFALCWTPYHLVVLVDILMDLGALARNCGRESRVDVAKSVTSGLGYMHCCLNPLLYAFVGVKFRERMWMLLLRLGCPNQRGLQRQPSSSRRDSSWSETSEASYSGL
Assay: [35S]GTPγS incorporation assay
Type: biochemical
Conditions: % of CXCL11 mediated effect; membrane preparations of HEK293T stably expressing CXCR3; read-out: CXCR3 Efficacy (%) ± SEM
Define the label as TRUE when Emax is strictly less than 40% and as FALSE in all remaining cases.

Sample answers from the record:
// query Please indicate whether the reported Emax of COc1ccc(C(=O)CCC(=O)N2Cc3ccccc3C[C@H]2C(=O)NCCCC[C@H](NC(=O)OC(C)(C)C)C(=O)NCC(c2ccccc2)c2ccccc2)cc1OC is strictly below 40%.
// result TRUE

// query Entry to check: NCCCC[C@@H](NC(=O)[C@@H]1Cc2ccccc2CN1C(=O)CCC(=O)c1ccccc1)C(=O)NCC(c1ccccc1)c1ccccc1.O=C(O)C(F)(F)F [Compound 47, 2,2,2-trifluoroacetate]
// result FALSE

// query Entry to check: CC(C)(C)OC(=O)N[C@@H](CCCCNC(=O)[C@@H]1Cc2ccccc2CN1C(=O)CCC(=O)c1ccc(S(C)(=O)=O)cc1)C(=O)NCC(c1ccccc1)c1ccccc1
// result TRUE

We next turn to a different compound, shown below.
// query Please indicate whether the reported Emax of CC(C)(C)OC(=O)N[C@@H](CCCCNC(=O)[C@@H]1Cc2ccccc2CN1C(=O)CCC(=O)c1ccc(F)cc1)C(=O)NCC(c1ccccc1)c1ccccc1 is strictly below 40%.
// result TRUE
